biological target: recombinant HcProRS (Homo sapiens, UniProt P07814); construct: SUMO (N, cleaved yes); made in house; host or cells: E. coli Rosetta 2 (DE3) pLysS; assay: fluorescence-based thermal shift assay (TSA); type: binding; conditions: 100 µM compound, 3.45 µM HcProRS, absence of Pro; difference of Tm with and without compound
Sequence (P07814 1001-1512): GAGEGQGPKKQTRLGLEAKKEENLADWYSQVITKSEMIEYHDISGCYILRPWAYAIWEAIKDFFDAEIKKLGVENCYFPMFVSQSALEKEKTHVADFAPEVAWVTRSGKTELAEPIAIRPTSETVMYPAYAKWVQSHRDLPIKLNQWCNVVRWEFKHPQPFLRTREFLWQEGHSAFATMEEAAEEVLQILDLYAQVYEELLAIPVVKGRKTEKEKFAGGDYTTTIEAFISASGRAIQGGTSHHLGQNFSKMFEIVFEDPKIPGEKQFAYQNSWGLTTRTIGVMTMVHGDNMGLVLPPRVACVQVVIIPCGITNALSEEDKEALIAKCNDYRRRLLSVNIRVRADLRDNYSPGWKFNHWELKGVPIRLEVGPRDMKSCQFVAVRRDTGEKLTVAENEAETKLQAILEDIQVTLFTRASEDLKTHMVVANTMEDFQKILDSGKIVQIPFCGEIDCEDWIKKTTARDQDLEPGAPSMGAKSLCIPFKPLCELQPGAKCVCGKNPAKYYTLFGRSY
Assignment: determine reported ∆Tm without L-Pro for the given compounds.
Just the number in °C, nothing appended.

Enter reported ∆Tm without L-Pro observed with recombinant HcProRS (Homo sapiens, UniProt P07814) for O=C(NCc1ccccc1Cl)c1nccnc1NCc1ccccc1Cl
−0.10

Enter reported ∆Tm without L-Pro observed with recombinant HcProRS (Homo sapiens, UniProt P07814) for Cc1ccc(CNc2nccnc2C(N)=O)cc1
−0.39

Enter reported ∆Tm without L-Pro observed with recombinant HcProRS (Homo sapiens, UniProt P07814) for O=C(NCc1ccc(F)cc1)c1nccnc1NCc1ccc(F)cc1
−0.90

Enter reported ∆Tm without L-Pro observed with recombinant HcProRS (Homo sapiens, UniProt P07814) for Nc1nccnc1C(=O)O [3-NH2-POA, 3-aminopyrazinoic acid, reference compound]
−0.28

Enter reported ∆Tm without L-Pro observed with recombinant HcProRS (Homo sapiens, UniProt P07814) for O=C(O)c1cnccn1 [POA, pyrazinoic acid, reference compound]
−0.63

Enter reported ∆Tm without L-Pro observed with recombinant HcProRS (Homo sapiens, UniProt P07814) for Cc1ccccc1CNc1nccnc1C(N)=O
−0.24

Enter reported ∆Tm without L-Pro observed with recombinant HcProRS (Homo sapiens, UniProt P07814) for Cc1ccccc1CNC(=O)c1nccnc1NCc1ccccc1C
−0.90

Enter reported ∆Tm without L-Pro observed with recombinant HcProRS (Homo sapiens, UniProt P07814) for NC(=O)c1nccnc1NCc1ccccc1
−0.35

Enter reported ∆Tm without L-Pro observed with recombinant HcProRS (Homo sapiens, UniProt P07814) for NC(=O)c1nccnc1NCc1ccc(Cl)c(Cl)c1
−1.58

Enter reported ∆Tm without L-Pro observed with recombinant HcProRS (Homo sapiens, UniProt P07814) for NC(=O)c1nccnc1NCc1ccc(Cl)cc1
−1.09

###

target: recombinant HcProRS (Homo sapiens); construct: SUMO (N, cleaved yes); made in house; host or cells: E. coli Rosetta 2 (DE3) pLysS; assay: fluorescence-based thermal shift assay (TSA); format: binding; details: 100 µM compound, 3.45 µM HcProRS; versus HcProRS with 1 mM Pro only
∆Tm with 1 mM L-Pro vs -1 °C: at or above is condition met, below is condition not met.

Given the entry Nc1nccnc1C(=O)O [3-NH2-POA, 3-aminopyrazinoic acid, reference compound] , answer whether its ∆Tm with 1 mM L-Pro meets or surpasses -1 °C.
condition met

Given the entry Cc1ccc(CNc2nccnc2C(N)=O)cc1 [4g] , answer whether its ∆Tm with 1 mM L-Pro meets or surpasses -1 °C.
condition not met

Given the entry NC(=O)c1nccnc1NCc1ccccc1 [4a] , answer whether its ∆Tm with 1 mM L-Pro meets or surpasses -1 °C.
condition met

Given the entry COc1ccc(CNc2nccnc2C(N)=O)c(OC)c1 [4k] , answer whether its ∆Tm with 1 mM L-Pro meets or surpasses -1 °C.
condition not met

Given the entry NC(=O)c1nccnc1NCc1ccc(Cl)cc1 [4e] , answer whether its ∆Tm with 1 mM L-Pro meets or surpasses -1 °C.
condition not met

Given the entry COc1ccc(CNc2nccnc2C(N)=O)cc1 [4f] , answer whether its ∆Tm with 1 mM L-Pro meets or surpasses -1 °C.
condition not met

Given the entry NC(=O)c1cnccn1 [PZA, pyrazinamide] , answer whether its ∆Tm with 1 mM L-Pro meets or surpasses -1 °C.
condition not met

###

Assignment: determine reported ∆Tm with 1 mM L-Pro for the given molecules.
target: recombinant HcProRS (Homo sapiens); construct: SUMO (N, cleaved yes); made in house; host or cells: E. coli Rosetta 2 (DE3) pLysS; assay: fluorescence-based thermal shift assay (TSA); format: binding; conditions: 100 µM compound, 3.45 µM HcProRS; versus HcProRS with 1 mM Pro only

So what's the measured ∆Tm with 1 mM L-Pro for this one? NC(=O)c1nccnc1NCc1ccccc1C(F)(F)F
+6.92 °C

So what's the measured ∆Tm with 1 mM L-Pro for this one? O=C(NCc1ccc(F)cc1)c1nccnc1NCc1ccc(F)cc1
−1.99 °C

So what's the measured ∆Tm with 1 mM L-Pro for this one? Cc1ccccc1CNC(=O)c1nccnc1NCc1ccccc1C
+2.52 °C

So what's the measured ∆Tm with 1 mM L-Pro for this one? O=C(O)c1cnccn1 [POA, pyrazinoic acid, reference compound]
−1.14 °C

So what's the measured ∆Tm with 1 mM L-Pro for this one? NC(=O)c1nccnc1NCc1cccc(Cl)c1
+0.22 °C

So what's the measured ∆Tm with 1 mM L-Pro for this one? NC(=O)c1nccnc1NCc1ccc(Cl)c(Cl)c1
−2.73 °C

###

Assignment: determine reported Tm without L-Pro for the given molecules.
biological target: recombinant HcProRS (Homo sapiens); construct: SUMO (N, cleaved yes); made in house; host or cells: E. coli Rosetta 2 (DE3) pLysS; assay: fluorescence-based thermal shift assay (TSA); format: binding; settings: 100 µM compound, 3.45 µM HcProRS, absence of Pro; reference Tm of HcProRS 56.15
Just the number in °C, nothing appended.

So what's the measured Tm without L-Pro for this one? O=C(O)c1cnccn1 [POA, pyrazinoic acid, reference compound]
55.52

So what's the measured Tm without L-Pro for this one? NC(=O)c1nccnc1NCc1ccccc1Cl [4h]
57.04

So what's the measured Tm without L-Pro for this one? NC(=O)c1nccnc1NCc1ccccc1 [4a]
55.80

So what's the measured Tm without L-Pro for this one? NC(=O)c1nccnc1NCc1cccc(Cl)c1 [4b]
55.38

So what's the measured Tm without L-Pro for this one? Cc1ccccc1CNc1nccnc1C(N)=O [4d]
55.91

So what's the measured Tm without L-Pro for this one? O=C(NC1Cc2ccccc2C1)c1nccnc1NC(=O)C1CCCCC1 [2a, reference compound]
63.15

So what's the measured Tm without L-Pro for this one? NC(=O)c1nccnc1NCc1ccccc1F [4i]
55.46

So what's the measured Tm without L-Pro for this one? O=C(NCc1ccccc1Cl)c1nccnc1NCc1ccccc1Cl [3b]
56.05

So what's the measured Tm without L-Pro for this one? COc1ccc(CNc2nccnc2C(N)=O)cc1 [4f]
56.34

So what's the measured Tm without L-Pro for this one? Nc1nccnc1C(=O)O [3-NH2-POA, 3-aminopyrazinoic acid, reference compound]
55.87

So what's the measured Tm without L-Pro for this one? NC(=O)c1nccnc1NCc1ccc(Cl)c(Cl)c1 [4c]
54.57

So what's the measured Tm without L-Pro for this one? NC(=O)c1cnccn1 [PZA, pyrazinamide]
56.06

So what's the measured Tm without L-Pro for this one? COc1ccc(CNc2nccnc2C(N)=O)c(OC)c1 [4k]
56.08

So what's the measured Tm without L-Pro for this one? NC(=O)c1nccnc1NCc1ccc(Cl)cc1 [4e]
55.06

So what's the measured Tm without L-Pro for this one? NC(=O)c1nccnc1NCc1ccccc1C(F)(F)F [4j]
58.13

So what's the measured Tm without L-Pro for this one? O=C(NCc1ccc(F)cc1)c1nccnc1NCc1ccc(F)cc1 [3a]
55.25

So what's the measured Tm without L-Pro for this one? Cc1ccccc1CNC(=O)c1nccnc1NCc1ccccc1C [3c]
55.25

So what's the measured Tm without L-Pro for this one? Cc1ccc(CNc2nccnc2C(N)=O)cc1 [4g]
55.76

###

Target: recombinant HcProRS (Homo sapiens, UniProt P07814)
Construct: SUMO (N, cleaved yes); made in house; host or cells: E. coli Rosetta 2 (DE3) pLysS
Assay: fluorescence-based thermal shift assay (TSA)
Type: binding
Conditions: no Pro, 3.45 µM HcProRS; read-out: EC50 (Tm-based) in the absence of Pro
Experimental: Compound binding usually helps to stabilize the protein due to protein-ligand interactions, resulting in an increase of the melting temperature (Tm) of the target protein during the thermal denaturation process. […] The ∆Tm was calculated based on the difference between the Tm values of HcProRS with and without compound. […] In a second-tier characterization, the Tm-based EC50 values of these five hits were determined. […]
measured_property: pEC50
Kindly note that pEC50 refers to -log10 of the concentration in mol/L and answer with the value alone.

So what's the measured pEC50 for this one? O=C(NC1Cc2ccccc2C1)c1nccnc1NC(=O)C1CCCCC1 [2a, reference compound]
4.52

###

molecular target: recombinant HcProRS (Homo sapiens); construct: SUMO (N, cleaved yes); made in house; host or cells: E. coli Rosetta 2 (DE3) pLysS; test: fluorescence-based thermal shift assay (TSA); assay type: binding; conditions: 100 µM compound, 3.45 µM HcProRS, 1 mM Pro; reference Tm with Pro only 60.20
measured_property: Tm with 1 mM L-Pro
Please don't drop the unit; write it after the number.

So what's the measured Tm with 1 mM L-Pro for this one? Cc1ccc(CNc2nccnc2C(N)=O)cc1
59.09 °C

So what's the measured Tm with 1 mM L-Pro for this one? NC(=O)c1cnccn1 [PZA, pyrazinamide]
59.04 °C

So what's the measured Tm with 1 mM L-Pro for this one? NC(=O)c1nccnc1NCc1ccc(Cl)cc1
58.70 °C

So what's the measured Tm with 1 mM L-Pro for this one? COc1ccc(CNc2nccnc2C(N)=O)c(OC)c1
58.48 °C
